Provenance of the data: ChEMBL document CHEMBL5120943

Exercise: state measured fraction unbound at 2 h for each of the compounds provided.
assay: Protein binding in human plasma assessed as free fraction measured after 2 hrs by LC-MS/MS analysis; format: ADME, cell-free
Numbers only.

| molecular-string | fraction unbound at 2 h |
| --- | --- |
| COC(=O)N1C[C@@H](C)N(c2ncc3[nH]nc(-c4ccc(N5CCN(C)CC5)cc4)c3n2)[C@@H](C)C1 | 0.043 |
| COC(=O)N1C[C@@H](C)N(c2ncc3[nH]nc(-c4ccc(N5CCN[C@H](C)C5)nc4)c3n2)[C@@H](C)C1 | 0.099 |

Request: // returns reported fraction unbound at 2 h for input C[C@@H]1CN(c2ccc(-c3n[nH]c4cnc(N5[C@H](C)CN(C(=O)N6CCCC6)C[C@@H]5C)nc34)cn2)CCN1
Response: 0.043

----------
biological target: Cytochrome P450 3A4 (Homo sapiens)
Sequence (P08684 whole entry): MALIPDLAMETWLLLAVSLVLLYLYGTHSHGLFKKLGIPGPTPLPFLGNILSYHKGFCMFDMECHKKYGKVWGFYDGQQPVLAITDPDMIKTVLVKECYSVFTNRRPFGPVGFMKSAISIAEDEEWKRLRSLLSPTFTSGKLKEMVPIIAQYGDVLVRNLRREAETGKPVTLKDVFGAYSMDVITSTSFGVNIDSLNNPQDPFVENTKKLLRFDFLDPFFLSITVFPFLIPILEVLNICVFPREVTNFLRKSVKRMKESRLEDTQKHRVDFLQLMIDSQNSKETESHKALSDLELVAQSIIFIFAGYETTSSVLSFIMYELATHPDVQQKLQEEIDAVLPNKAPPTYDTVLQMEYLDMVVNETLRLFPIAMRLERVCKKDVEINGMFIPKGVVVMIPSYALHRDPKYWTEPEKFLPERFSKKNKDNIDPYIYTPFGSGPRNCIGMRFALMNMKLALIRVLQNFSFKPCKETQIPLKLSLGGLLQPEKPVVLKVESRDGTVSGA
measured-parameter: IC50

Request: Any idea what IC50 was measured for COC(=O)N1C[C@@H](C)N(c2ncc3[nH]nc(-c4ccc(N5CCN(C)CC5)cc4)c3n2)[C@@H](C)C1 ?
Response: > 25 µM

----------
target: hERG (KCNH2) (Homo sapiens); experiment: Inhibition of human ERG at 1 uM by patch clamp assay relative to control; type: toxicity
Sequence (Q12809 whole entry): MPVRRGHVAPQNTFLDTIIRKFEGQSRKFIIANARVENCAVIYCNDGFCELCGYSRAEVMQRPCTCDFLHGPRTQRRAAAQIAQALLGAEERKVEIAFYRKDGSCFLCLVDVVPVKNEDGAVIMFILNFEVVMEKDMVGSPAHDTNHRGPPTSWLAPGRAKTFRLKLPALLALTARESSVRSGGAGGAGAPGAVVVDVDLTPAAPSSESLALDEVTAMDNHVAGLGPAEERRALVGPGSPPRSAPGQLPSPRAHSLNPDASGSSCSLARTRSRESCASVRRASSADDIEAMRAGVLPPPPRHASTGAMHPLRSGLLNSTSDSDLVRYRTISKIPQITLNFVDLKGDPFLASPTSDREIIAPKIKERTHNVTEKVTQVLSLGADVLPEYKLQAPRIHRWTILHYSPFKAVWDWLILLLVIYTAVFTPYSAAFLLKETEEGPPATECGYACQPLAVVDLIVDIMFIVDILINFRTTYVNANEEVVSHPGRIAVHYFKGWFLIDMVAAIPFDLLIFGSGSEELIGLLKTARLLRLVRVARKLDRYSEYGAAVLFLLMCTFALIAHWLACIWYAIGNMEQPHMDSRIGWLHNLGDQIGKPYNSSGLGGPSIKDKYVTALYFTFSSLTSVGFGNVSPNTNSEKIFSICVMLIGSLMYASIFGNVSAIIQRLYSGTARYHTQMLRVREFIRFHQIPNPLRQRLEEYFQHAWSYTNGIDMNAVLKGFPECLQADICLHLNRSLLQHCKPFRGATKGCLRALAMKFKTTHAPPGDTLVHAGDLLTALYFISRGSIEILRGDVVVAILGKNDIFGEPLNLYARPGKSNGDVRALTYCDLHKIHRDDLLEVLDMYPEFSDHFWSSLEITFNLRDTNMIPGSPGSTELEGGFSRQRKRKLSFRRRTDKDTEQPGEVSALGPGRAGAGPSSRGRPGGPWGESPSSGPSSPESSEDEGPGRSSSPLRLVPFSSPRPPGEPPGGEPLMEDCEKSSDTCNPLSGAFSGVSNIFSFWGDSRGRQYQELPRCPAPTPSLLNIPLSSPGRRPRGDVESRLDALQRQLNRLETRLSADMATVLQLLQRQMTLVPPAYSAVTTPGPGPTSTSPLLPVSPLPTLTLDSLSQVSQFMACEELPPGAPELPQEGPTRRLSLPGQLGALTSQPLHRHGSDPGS
measured-parameter: inhibition at 1 µM

Request: If you can, please state the reported inhibition at 1 µM value of COC(=O)N1C[C@@H](C)N(c2ncc3[nH]nc(-c4ccc(N5CCN(C)CC5)cc4)c3n2)[C@@H](C)C1 .
Response: < 1%
